- system_tested: Human HDAC8 (Homo sapiens (Human))
- Sequence (Q9BY41 whole entry): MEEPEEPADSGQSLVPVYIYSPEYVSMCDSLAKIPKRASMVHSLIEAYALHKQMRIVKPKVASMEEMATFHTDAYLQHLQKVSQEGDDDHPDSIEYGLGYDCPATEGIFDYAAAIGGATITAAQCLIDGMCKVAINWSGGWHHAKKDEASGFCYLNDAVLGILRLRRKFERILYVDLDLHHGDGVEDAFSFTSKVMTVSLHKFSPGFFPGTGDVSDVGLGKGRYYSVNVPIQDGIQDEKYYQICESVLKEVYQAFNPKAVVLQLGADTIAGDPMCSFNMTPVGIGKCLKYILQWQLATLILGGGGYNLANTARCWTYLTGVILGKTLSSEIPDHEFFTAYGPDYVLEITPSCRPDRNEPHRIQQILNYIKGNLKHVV
Listed below: IC50 values for each entry.

Problem: Please report IC50 with Human HDAC8 (Homo sapiens (Human)) for item "NC(=O)c1ccc(OCc2ccc(-c3nnc(C(F)F)o3)cn2)cc1" .
Solution: > 100 µM

Problem: Tell me IC50 of "Fc1ccc(OCc2ccc(-c3nnc(C(F)F)o3)cn2)cc1" when tested on Human HDAC8 (Homo sapiens (Human)).
Solution: > 100 µM

Problem: # assay system Human HDAC8 (Homo sapiens (Human)): give IC50 of "Cc1nc(OCc2ccc(-c3nnc(C(F)F)o3)cn2)c2ccccc2n1"
Solution: > 100 µM

Problem: Find IC50 for "N#Cc1ccccc1OCc1ccc(-c2nnc(C(F)F)o2)cn1" on Human HDAC8 (Homo sapiens (Human)) and write it down.
Solution: > 100 µM

Problem: Print Human HDAC8 (Homo sapiens (Human)) IC50 for "Fc1ccc(OCc2ccc(-c3nnc(C(F)F)o3)cn2)c(Cl)c1" .
Solution: > 100 µM
